# target under test: human GLP-1 receptor (human, UniProt P43220 24-463)
# method description: cell-based or functional assay
Positions of bridges follow the written chain, without caps; N, C: chain ends. Non-standard residues stand in square brackets, D forms with d. No end group written: not given here. Aib = CC(C)(N)C(=O)O
recorded endpoint: In vitro activity (%) compared with native peptide: vs GLP-1
Give bare numbers, in %.

binder: Y[Aib]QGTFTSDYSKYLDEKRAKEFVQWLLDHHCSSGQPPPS (bridge 16-20; not fully specified) [triple agonist of SEQ ID NO: 43]
experimental result: 12.6

binder: Y[Aib]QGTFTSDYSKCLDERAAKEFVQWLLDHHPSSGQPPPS (bridge 16-20; not fully specified) [triple agonist of SEQ ID NO: 69]
experimental result: 24.3

// switching to the query binder
Need In vitro activity (%) compared with native peptide: vs GLP-1, item H[Aib]QGTFTSDYSKYLCEKRQKEFVQWLLNGGPSSGAPPPSG (bridge 16-20) [triple agonist of SEQ ID NO: 36]
37.4
